- target: Adenosine receptor A1 (Rattus norvegicus, UniProt P25099)
- Sequence (P25099 whole entry): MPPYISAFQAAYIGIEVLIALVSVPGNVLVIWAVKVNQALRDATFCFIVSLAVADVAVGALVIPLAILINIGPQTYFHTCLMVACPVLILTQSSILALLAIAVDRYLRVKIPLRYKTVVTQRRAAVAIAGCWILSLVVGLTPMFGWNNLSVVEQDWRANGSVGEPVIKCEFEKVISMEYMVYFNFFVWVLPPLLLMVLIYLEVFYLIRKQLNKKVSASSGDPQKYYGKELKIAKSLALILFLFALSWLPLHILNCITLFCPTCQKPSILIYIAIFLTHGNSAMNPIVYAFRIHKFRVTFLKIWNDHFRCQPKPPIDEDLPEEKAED
- experiment: Displacement of [3h]DPCPX from adenosine A receptor in rat cerebral cortex membrane
Ki by entry:

Some solved cases for reference:
>  <molecule>
Nc1nc(NC[C@H]2CC[C@@H]3CN(c4ncccn4)CCN3C2)nc2nc(-c3ccco3)nn12 (racemic)

>  <valueReported>
> 1 µM

$$$$
>  <molecule>
Nc1cc(N2CCN3[C@@H](COc4cccnc4)CCC[C@H]3C2)nc2nc(-c3ccco3)nn12 (racemic)

>  <valueReported>
> 0.5 µM

$$$$
>  <molecule>
Nc1nc(N2CCN3C[C@@H](CN(Cc4ccco4)Cc4ccco4)CC[C@H]3C2)nc2nc(-c3ccco3)nn12

>  <valueReported>
> 1 µM

$$$$
>  <molecule>
Nc1nc(N2CCN3C[C@@H](COc4ccccc4)CC[C@H]3C2)nc2nc(-c3ccco3)nn12 (racemic)

>  <valueReported>
> 0.5 µM

$$$$
>  <molecule>
Nc1nc(N2CCN3C[C@H](COc4cccc5cnccc45)CC[C@H]3C2)nc2nc(-c3ccco3)nn12 (racemic)

>  <valueReported>
0.21 µM (antagonist)

$$$$
>  <molecule>
Cc1nn(C)c(Cl)c1CNC[C@H]1CC[C@H]2CN(c3nc(N)n4nc(-c5ccco5)nc4n3)CCN2C1

>  <valueReported>
> 0.5 µM

$$$$
>  <molecule>
Nc1nc(N2CCN3C[C@@H](CN(Cc4ccc(F)cc4F)Cc4ccc(F)cc4F)CC[C@H]3C2)nc2nc(-c3ccco3)nn12

>  <valueReported>
> 1 µM

$$$$

// below: Ki requested for another molecule
Look up and state reported Ki for Nc1nc(N2CCN3C[C@@H](COc4ncnc5ccccc45)CC[C@H]3C2)nc2nc(-c3ccco3)nn12 (racemic)
> 0.5 µM

====

Ki by entry:
- target: Adenosine receptor A2a (Rattus norvegicus)
- experiment: Displacement of [3H]ZM241385 from adenosine A2A receptor in rat brain membrane
- Assay type: cell membranes

Some solved cases for reference:
>  <compound>
Nc1nc(N2CCN3C[C@@H](COc4ccc(F)cc4F)CC[C@H]3C2)nc2nc(-c3ccco3)nn12 (racemic)

>  <Ki>
70 nM (antagonist)

$$$$
>  <compound>
Nc1nc(N2CCN3CCC[C@H]3C2)nc2nc(-c3ccco3)nn12

>  <Ki>
46 nM (antagonist)

$$$$
>  <compound>
Nc1nc(N2CCN3[C@@H](CO)CCC[C@H]3C2)cc2nc(-c3ccco3)nn12 (racemic)

>  <Ki>
110 nM (antagonist)

$$$$
>  <compound>
Cn1nc(C(F)(F)F)c(CN2CCN3C[C@@H](CNc4nc(N)n5nc(-c6ccco6)nc5n4)CC[C@@H]3C2)c1Cl (racemic)

>  <Ki>
> 500 nM

$$$$

// below: Ki requested for another compound
Look up and state reported Ki for Nc1nc(N2CCN3C[C@@H](COc4ccccn4)CC[C@H]3C2)nc2nc(-c3ccco3)nn12 (racemic)
20 nM (antagonist)

====

- target: Adenosine receptor A2a (Rattus norvegicus, UniProt P30543)
- Sequence (P30543 whole entry): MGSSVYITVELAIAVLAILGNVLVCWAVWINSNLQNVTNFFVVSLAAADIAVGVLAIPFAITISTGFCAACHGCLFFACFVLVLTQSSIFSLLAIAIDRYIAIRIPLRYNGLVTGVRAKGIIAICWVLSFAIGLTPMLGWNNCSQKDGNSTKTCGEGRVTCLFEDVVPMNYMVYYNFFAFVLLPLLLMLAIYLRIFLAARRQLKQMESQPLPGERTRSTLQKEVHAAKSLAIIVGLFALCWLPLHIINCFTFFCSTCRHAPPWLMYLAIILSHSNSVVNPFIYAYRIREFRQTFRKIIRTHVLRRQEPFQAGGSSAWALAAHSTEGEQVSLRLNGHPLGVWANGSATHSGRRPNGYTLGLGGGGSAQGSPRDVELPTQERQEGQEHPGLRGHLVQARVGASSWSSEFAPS
- experiment: Displacement of [3H]ZM241385 from adenosine A2A receptor in rat brain membrane
- Type: cell membranes
measurementName: Ki

Some solved cases for reference:
>  <compound>
Nc1nc(NC[C@@H]2CC[C@@H]3CN(c4cc(F)cc(F)c4)CCN3C2)nc2nc(-c3ccco3)nn12 (racemic)

>  <valueReported>
49 nM (antagonist)

$$$$
>  <compound>
Nc1nc(N2CCN3C[C@H](COc4ccccn4)CC[C@H]3C2)nc2nc(-c3ccco3)nn12 (racemic)

>  <valueReported>
41 nM (antagonist)

$$$$
>  <compound>
Nc1cc(N2CCN3C[C@@H](CO)CC[C@H]3C2)nc2nc(-c3ccco3)nn12 (racemic)

>  <valueReported>
230 nM (antagonist)

$$$$
>  <compound>
Nc1nc(NC[C@@H]2CC[C@@H]3CN(Cc4ccc(F)cc4F)CCN3C2)nc2nc(-c3ccco3)nn12 (racemic)

>  <valueReported>
130 nM (antagonist)

$$$$
>  <compound>
Nc1nc(NC[C@@H]2CC[C@@H]3CN(c4ncccn4)CCN3C2)nc2nc(-c3ccco3)nn12 (racemic)

>  <valueReported>
0.3 nM (antagonist)

$$$$

// below: Ki requested for another compound
Look up and state reported Ki for Nc1nc(N2CCN3C[C@@H](CN(Cc4ccco4)Cc4ccco4)CC[C@H]3C2)nc2nc(-c3ccco3)nn12
47 nM (antagonist)

====

- target: Adenosine receptor A1 (Rattus norvegicus)
- experiment: Displacement of [3h]DPCPX from adenosine A receptor in rat cerebral cortex membrane
measurementName: Ki

Some solved cases for reference:
>  <compound>
Nc1nc(N2CCN3CCCCC3C2)cc2nc(-c3ccco3)nn12 (racemic)

>  <Ki>
> 0.5 µM

$$$$
>  <compound>
Nc1cc(N2CCN3CCCCC3C2)nc2nc(-c3ccco3)nn12 (racemic)

>  <Ki>
> 0.5 µM

$$$$

Look up and state reported Ki for Nc1nc(N2CCN3CCC[C@H]3C2)cc2nc(-c3ccco3)nn12
> 0.5 µM

Look up and state reported Ki for Nc1nc(N2CCN3C[C@H](COc4ccncc4)CC[C@H]3C2)nc2nc(-c3ccco3)nn12 (racemic)
> 1 µM

Look up and state reported Ki for NC[C@@H]1CC[C@H]2CN(c3nc(N)n4nc(-c5ccco5)nc4n3)CCN2C1
3.5 µM

Look up and state reported Ki for Nc1nc(N2CCN3C[C@@H](Cn4cnnn4)CC[C@H]3C2)nc2nc(-c3ccco3)nn12 (racemic)
> 0.5 µM

Look up and state reported Ki for Nc1nc(N2CCN3C[C@@H](CNCc4ccc(F)cc4F)CC[C@H]3C2)nc2nc(-c3ccco3)nn12
1.1 µM

Look up and state reported Ki for NC[C@H]1CC[C@H]2CN(c3cc(N)n4nc(-c5ccco5)nc4n3)CCN2C1
> 0.5 µM

Look up and state reported Ki for Nc1nc(N2C[C@@H]3CCCN3C[C@@H]2Cc2ccccc2)nc2nc(-c3ccco3)nn12
> 1 µM

Look up and state reported Ki for Nc1nc(N2CCN3C[C@H](COc4ncnc5ccccc45)CC[C@H]3C2)nc2nc(-c3ccco3)nn12 (racemic)
> 1 µM

Look up and state reported Ki for Nc1nc(N2CCN3C[C@@H](COc4ccccn4)CC[C@H]3C2)nc2nc(-c3ccco3)nn12 (racemic)
> 1 µM

Look up and state reported Ki for Nc1nc(N2CCN3C[C@@H](COc4ccc5ncccc5c4)CC[C@H]3C2)nc2nc(-c3ccco3)nn12
3.5 µM

Look up and state reported Ki for Nc1nc(N2CCN3C[C@@H](COc4cccc5cnccc45)CC[C@H]3C2)nc2nc(-c3ccco3)nn12 (racemic)
3.5 µM

Look up and state reported Ki for Nc1nc(N2CCN3[C@@H](CO)CCC[C@H]3C2)cc2nc(-c3ccco3)nn12 (racemic)
> 0.5 µM

Look up and state reported Ki for Nc1nc(N2CCN3C[C@@H](COc4ccc(F)cc4)CC[C@H]3C2)nc2nc(-c3ccco3)nn12 (racemic)
> 0.5 µM

Look up and state reported Ki for Nc1nc(N2CCN3C[C@H](COc4cc5ccccc5cn4)CC[C@H]3C2)nc2nc(-c3ccco3)nn12 (racemic)
0.71 µM (antagonist)

====

- target: Adenosine receptor A1 (Rattus norvegicus, UniProt P25099)
- experiment: Displacement of [3h]DPCPX from adenosine A receptor in rat cerebral cortex membrane
Ki by entry:

Some solved cases for reference:
>  <compound>
COC(=O)c1nc(Cl)c(N2CCN3C[C@H](CNc4nc(N)n5nc(-c6ccco6)nc5n4)CC[C@@H]3C2)nc1N (racemic)

>  <Ki>
> 1000 nM

$$$$
>  <compound>
Nc1nc(N2CCN3C[C@@H](CO)CC[C@H]3C2)nc2nc(-c3ccco3)nn12 (racemic)

>  <Ki>
660 nM (antagonist)

$$$$
>  <compound>
Nc1nc(N2CCN3C[C@H](COc4ccccn4)CC[C@H]3C2)nc2nc(-c3ccco3)nn12 (racemic)

>  <Ki>
> 500 nM

$$$$
>  <compound>
Nc1nc(N2CCN3C[C@H](COc4ccc5ccccc5n4)CC[C@H]3C2)nc2nc(-c3ccco3)nn12

>  <Ki>
> 1000 nM

$$$$
>  <compound>
Nc1nc(N2CCN3C[C@@H](COc4ncnc5[nH]ncc45)CC[C@@H]3C2)nc2nc(-c3ccco3)nn12 (racemic)

>  <Ki>
> 500 nM

$$$$
>  <compound>
Cc1nn(C)c(Cl)c1CN(Cc1c(C)nn(C)c1Cl)C[C@H]1CC[C@H]2CN(c3nc(N)n4nc(-c5ccco5)nc4n3)CCN2C1

>  <Ki>
> 1000 nM

$$$$
>  <compound>
Nc1nc(N2CCN3C[C@@H](CNc4ncccn4)CC[C@H]3C2)nc2nc(-c3ccco3)nn12 (racemic)

>  <Ki>
1500 nM

$$$$
>  <compound>
Nc1cc(N2CCN3[C@@H](CO)CCC[C@H]3C2)nc2nc(-c3ccco3)nn12 (racemic)

>  <Ki>
> 500 nM

$$$$
>  <compound>
Nc1nc(N2CCN3C[C@@H](CO)CC[C@H]3C2)cc2nc(-c3ccco3)nn12 (racemic)

>  <Ki>
> 500 nM

$$$$
>  <compound>
Nc1nc(N2CCN3C[C@H](CO)CC[C@H]3C2)cc2nc(-c3ccco3)nn12 (racemic)

>  <Ki>
> 1000 nM

$$$$

Look up and state reported Ki for Nc1nc(N2CCN3C[C@H](CNc4ncccn4)CC[C@H]3C2)nc2nc(-c3ccco3)nn12
> 1000 nM

Look up and state reported Ki for Nc1nc(N2CCN3C[C@@H](CN(Cc4ccccn4)Cc4ccccn4)CC[C@H]3C2)nc2nc(-c3ccco3)nn12
> 500 nM

Look up and state reported Ki for Nc1nc(N2CCN3C[C@@H](COc4cccc(F)c4)CC[C@H]3C2)nc2nc(-c3ccco3)nn12 (racemic)
3300 nM

Look up and state reported Ki for Nc1nc(N2CCN3C[C@@H](COc4cccnc4)CC[C@H]3C2)nc2nc(-c3ccco3)nn12 (racemic)
1400 nM

Look up and state reported Ki for Nc1nc(N2CCN3CCCCC3C2)nc2nc(-c3ccco3)nn12 (racemic)
860 nM (antagonist)
